Data origin, for the record: patent US8163909B2

- subject.of.test: CYP2D6 (Homo sapiens)
- test.details: CYP2D6 inhibition assay (bufuralol, pooled human liver microsomes)
- condition.context: 2D6 IC50, CYP2D6 inhibition
pIC50: −log10 of the molar value.
Readings of pIC50 for the listed molecules

molecule: COCC(=O)N[C@@H](Cc1ccc(F)cc1)[C@H](O)CN[C@H]1CC(C)(C)Oc2ncc(CC(C)(C)C)cc21 [compound 663]
pIC50: 4.98

molecule: CC(=O)N[C@@H](Cc1cccc(-c2cncs2)c1)[C@H](O)CN[C@H]1CC2(CCC2)Oc2ncc(CC(C)(C)C)cc21 [compound 658]
pIC50: 6.52

molecule: CC(=O)N[C@@H](Cc1ccc(F)c(-c2nccs2)c1)[C@H](O)CN[C@H]1CC2(CCC2)Oc2ccc(CC(C)(C)C)cc21 [Example 640]
pIC50: 6.52

molecule: COCC(=O)N[C@@H](Cc1cccc(C#N)c1)[C@H](O)CN[C@H]1CC2(CCC2)Oc2c(-c3ccncc3)cc(CC(C)C)cc21 [compound 619]
pIC50: 5.82

molecule: COCC(=O)N[C@@H](Cc1cccc(F)c1)[C@H](O)CN[C@H]1CC2(CCC2)Oc2c1cc(CC(C)(C)OC)cc2-n1ccnc1.O=C(O)C(F)(F)F [Example 423]
pIC50: 6.52

molecule: COCC(=O)N[C@@H](Cc1ccc2c(c1)OCO2)[C@H](O)CN[C@H]1CC2(CCC2)Oc2ncc([C@H]3CC3(C)C)cc21 [compound 576]
pIC50: 5.57

###

- subject.of.test: CYP2D6 (Homo sapiens, UniProt P10635)
- Sequence (P10635 whole entry): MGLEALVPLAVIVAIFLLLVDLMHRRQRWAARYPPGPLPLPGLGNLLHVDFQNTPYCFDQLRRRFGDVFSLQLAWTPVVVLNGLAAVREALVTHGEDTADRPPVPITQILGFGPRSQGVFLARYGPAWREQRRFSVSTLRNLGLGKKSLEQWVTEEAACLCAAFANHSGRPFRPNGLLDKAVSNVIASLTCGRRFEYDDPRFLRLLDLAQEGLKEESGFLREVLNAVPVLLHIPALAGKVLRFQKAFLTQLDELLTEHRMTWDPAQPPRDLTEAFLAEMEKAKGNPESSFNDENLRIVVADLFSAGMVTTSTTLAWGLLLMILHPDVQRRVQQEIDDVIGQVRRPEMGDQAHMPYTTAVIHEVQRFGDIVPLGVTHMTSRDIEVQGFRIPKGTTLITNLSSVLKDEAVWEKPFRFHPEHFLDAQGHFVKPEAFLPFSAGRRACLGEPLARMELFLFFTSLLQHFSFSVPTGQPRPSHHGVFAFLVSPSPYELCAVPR
- test.details: CYP2D6 inhibition assay (bufuralol, pooled human liver microsomes)
- condition.context: 2D6 IC50, CYP enzyme inhibition
result.type: log10 of IC50 (log10 of the value in µM)

record.smiles: COCC(=O)N[C@@H](Cc1cc(F)cc(-c2nccs2)c1)[C@H](O)CN[C@@]1(C)CC2(CCC2)Oc2ncc(CC(C)(C)C)cc21
log10 of IC50: -0.05
//
record.smiles: CCOCC(=O)N[C@@H](Cc1cccc(-c2ncco2)c1)[C@H](O)CN[C@H]1CC2(CCC2)Oc2ncc(CC(C)(C)C)cc21
log10 of IC50: 1.39
//
record.smiles: COCC(=O)N[C@@H](Cc1ccc2c(c1)OCO2)[C@@H](CN[C@H]1CC2(CCC2)Oc2ncc([C@H](F)C(C)(C)C)cc21)OC
log10 of IC50: 1.15
//
record.smiles: CO[C@H](C)C(=O)N[C@@H](Cc1cc(F)cc(-c2nccs2)c1)[C@H](O)CN[C@H]1CC2(CCC2)Oc2ncc(Br)cc21
log10 of IC50: -0.52
//
record.smiles: CC(=O)C(C)(C)C(=O)N[C@@H](Cc1cccc(F)c1)[C@H](O)CN[C@H]1CC2(CCC2)Oc2ncc(CC(C)(C)C)cc21
log10 of IC50: 0.86
//
record.smiles: COCC(=O)N[C@@H](Cc1cc(Br)cc(Br)c1)[C@H](O)CN[C@H]1CC2(CCC2)Oc2ncc(CC(C)(C)C)cc21
log10 of IC50: 0.59
//
record.smiles: CO[C@H](C)C(=O)N[C@@H](Cc1cccc(C#N)c1)[C@H](O)CN[C@H]1CC2(CC(F)(F)C2)Oc2ncc(CC(C)(C)C)cc21
log10 of IC50: 1.01
//
record.smiles: CC(C)(C)Cc1cnc2c(c1)[C@@H](NC[C@@H](O)[C@H](Cc1cccc(C#N)c1)NC(=O)[C@H]1CCCO1)CC1(CC(F)(F)C1)O2
log10 of IC50: 0.85
//
record.smiles: C#Cc1cc(F)cc(C[C@H](NC(=O)COC)[C@H](O)CN[C@H]2CC3(CCC3)Oc3ncc(CC(C)C)cc32)c1
log10 of IC50: 0.00
//
record.smiles: CC(C)(C)Cc1cnc2c(c1)[C@@H](NC[C@@H](O)[C@H](Cc1ccc3c(c1)OCO3)NC(=O)[C@H]1CCC(=O)C1)CC1(CCC1)O2
log10 of IC50: 0.93
//
record.smiles: CCOCC(=O)N[C@@H](Cc1cc(F)cc(-c2nccs2)c1)[C@H](O)CN[C@H]1CC2(CCC2)Oc2ncc(CC(C)(C)C)cc21
log10 of IC50: -0.19

###

- subject.of.test: CYP2D6 (Homo sapiens, UniProt P10635)
- test.details: CYP2D6 inhibition assay (bufuralol, pooled human liver microsomes)
- condition.context: human, pooled human liver microsomes, pH 7.4, probe bufuralol, about 5 μM, 2D6 IC50, CYP enzyme inhibition
result.type: IC50 at 10 min (nM)

record.smiles: CC(C)(C)Cc1cnc2c(c1)[C@@H](NC[C@@H](O)[C@H](Cc1cc(F)cc(-c3nccs3)c1)NC(=O)[C@@H]1CCCO1)CC1(CCC1)O2
result.type: IC50 at 10 min
test.result: 600

###

- System: Aβ40 in conditioned medium of cells stably expressing Amyloid Precursor Protein (APP)
- test.details: In vitro BACE cell-based assay (Aβ40 in conditioned medium, sandwich ELISA);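 also: compounds added as a dilution series, secreted peptide quantified by europium time-resolved fluorescence readout, potency fitted from percent of control versus compound concentration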
- condition.context: Homo sapiens, HEK293, Table 2; HEK cells; read-out: HEK cell assay
Readings of log10 IC50 for the listed molecules
result.type: log10 IC50 (log10 of the value in nM)

record.smiles: CO[C@@H](C)C(=O)N[C@@H](Cc1ccc2c(c1)OCO2)[C@H](O)CN[C@H]1CC2(CCC2)Cc2sc(CC(C)(C)C)cc21
log10 IC50: 2.86
--
record.smiles: COCC(=O)N[C@@H](Cc1cc(F)cc(F)c1)[C@H](O)CN[C@H]1CC2(CCC2)Oc2c(-c3cnc[nH]3)cc(CC(C)C)cc21
log10 IC50: 0.78
--
record.smiles: CC(C)(C)Cc1cnc2c(c1)[C@@H](NC[C@@H](O)[C@H](Cc1ccc(F)cc1)NC(=O)C(C)(F)F)CC1(CCC1)O2
log10 IC50: 2.02
--
record.smiles: CC(=O)CC(=O)N[C@@H](Cc1cccc(F)c1)[C@H](O)CN[C@H]1CC2(CCC2)Oc2ncc(CC(C)(C)C)cc21
log10 IC50: 0.90
--
record.smiles: CC(=O)C(C)(C)C(=O)N[C@@H](Cc1ccc2c(c1)OCO2)[C@H](O)CN[C@H]1CC2(CCC2)Oc2ncc(CC(C)(C)C)cc21
log10 IC50: 2.96
--
record.smiles: COCC(=O)N[C@@H](Cc1cc(F)cc(F)c1)[C@H](O)CN[C@H]1CC2(CCC2)Oc2c1cc(CC(C)C)cc2-n1ccnc1
log10 IC50: 1.08

###

- test.details: Microsomal stability assay, rat liver microsomes;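 also: rat liver microsomes (0.25 mg/mL) with about 1 µM compound plus 1 mM NADPH, pH 7.4, 37 °C for 30 min, parent left measured by LC-MS/MS against 0 min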
- condition.context: rat liver microsomal data
result.type: RLM (µL/min/mg)

record.smiles: CO[C@H](C)C(=O)N[C@@H](Cc1cncs1)[C@H](O)CN[C@H]1CC2(CCC2)Oc2c1cc(CC(C)(C)C)nc2-c1ccccn1
result.type: RLM
test.result: 82

record.smiles: CC(=O)N[C@@H](Cc1ccc2c(c1)OCO2)[C@H](O)CN[C@H]1CC2(CCC2)Oc2ncc(CC(F)(F)F)cc21
result.type: RLM
test.result: 51

record.smiles: COCC(=O)N[C@@H](Cc1cccc([C@@H]2CCCO2)c1)[C@H](O)CN[C@H]1CC2(CCC2)Oc2ncc(CC(C)(C)C)cc21
result.type: RLM
test.result: 590

record.smiles: CO[C@H](C)C(=O)N[C@@H](Cc1cc(F)cc(-c2nccs2)c1)[C@H](O)CN[C@H]1CC2(CCC2)Oc2ncc(C#CC3CC3)cc21
result.type: RLM
test.result: 107

record.smiles: CO[C@H](C)C(=O)N[C@@H](Cc1cccc(F)c1)[C@H](O)CN[C@H]1CC2(CCC2)Oc2c1cc(CC(C)(C)C)cc2-n1ccnc1
result.type: RLM
test.result: 141

record.smiles: CO[C@H](C)C(=O)N[C@@H](Cc1cc(F)cc(-c2nccs2)c1)[C@H](O)CN[C@H]1CC2(CCC2)Oc2ncc(Br)cc21
result.type: RLM
test.result: 156

record.smiles: CC(C)(C)Cc1cnc2c(c1)[C@@H](NC[C@@H](O)[C@H](Cc1ccc(F)cc1)NC=O)CC1(CCC1)O2
result.type: RLM
test.result: 347

record.smiles: COC(OC)C(=O)N[C@@H](Cc1cccc(C#N)c1)[C@H](O)CN[C@H]1CC2(CCC2)Oc2ncc(CC(C)(C)C)cc21
result.type: RLM
test.result: 423

record.smiles: COCC(=O)N[C@@H](Cc1cccc(F)c1)[C@H](O)CN[C@@H]1CC2(CCC2)Oc2c1cc(CC(C)(C)C)nc2-n1ccnc1
result.type: RLM
test.result: 158

record.smiles: COCC(=O)N[C@@H](Cc1cc(-c2nccs2)cc(-c2nccs2)c1)[C@H](O)CN[C@H]1CC2(CCC2)Oc2ncc(CC(C)(C)C)cc21
result.type: RLM
test.result: 57

record.smiles: CO[C@H](C)C(=O)N[C@@H](Cc1cccc(-c2nccs2)c1F)[C@H](O)CN[C@H]1CC2(CCC2)Oc2ncc(CC(C)(C)C)cc21
result.type: RLM
test.result: 127

record.smiles: COCC(=O)N[C@@H](Cc1ccnc(OC)c1)[C@H](O)CN[C@H]1CC2(CCC2)Oc2ncc(CC(C)(C)C)cc21
result.type: RLM
test.result: 174

record.smiles: CC(=O)N[C@@H](Cc1cccc(F)c1)[C@H](O)CN[C@H]1CC2(CCC2)Oc2c1cc(CC(C)(C)C)nc2-c1ccncc1
result.type: RLM
test.result: 91

record.smiles: CC(=O)N[C@@H](Cc1ccc(F)cc1)[C@H](O)CN[C@H]1CC2(CCC2)Oc2ncc(C(F)(F)C(C)(C)C)cc21
result.type: RLM
test.result: 162

record.smiles: CC(=O)N[C@@H](Cc1ccc2c(c1)OCO2)[C@H](O)CN[C@H]1CC2(CCC2)Oc2ncc(C(F)(F)C(C)(C)C)cc21
result.type: RLM
test.result: 146

record.smiles: CC(C)(C)Cc1cnc2c(c1)[C@@H](NC[C@@H](O)[C@H](Cc1ccc(F)cc1)NC(=O)[C@@H]1CN(Cc3nccs3)CCO1)CC1(CCC1)O2
result.type: RLM
test.result: 333

record.smiles: COCC(=O)N[C@@H](Cc1ccccc1)[C@H](O)CN[C@H]1CC2(CCC2)Oc2c1cc(CC(C)C)cc2-n1ccnc1
result.type: RLM
test.result: 267

record.smiles: CO[C@H](C)C(=O)N[C@@H](Cc1cc(F)cc(F)c1)[C@H](O)CN[C@H]1CC2(CCC2)Oc2c(-c3cncs3)cc(CC(C)C)cc21
result.type: RLM
test.result: 285

record.smiles: C#Cc1cccc(C[C@H](NC(=O)[C@@H]2CCCO2)[C@H](O)CN[C@H]2CC3(CCC3)Oc3ncc(CC(C)(C)C)cc32)c1F
result.type: RLM
test.result: 76

record.smiles: CO[C@H](C)C(=O)N[C@@H](Cc1ccc2c(c1)OCO2)[C@H](O)CN[C@@H]1c2cc(CC(C)(C)C)cnc2OC2(CCC2)[C@@H]1F
result.type: RLM
test.result: 173

record.smiles: COCC(=O)N[C@@H](Cc1cc(F)cc(Cl)c1)[C@H](O)CN[C@H]1CC2(CCC2)Oc2ncc(CC(C)(F)F)cc21
result.type: RLM
test.result: 236.5

record.smiles: CC(=O)N[C@@H](Cc1ccc(F)cc1)[C@H](O)CN[C@H]1CC2(CCC2)Oc2c1cc(CC(C)(C)C)nc2NC1CCC1
result.type: RLM
test.result: 172

record.smiles: COCC(=O)N[C@@H](Cc1ccc2c(c1)OCO2)[C@H](O)CN[C@H]1CC2(CCC2)Oc2ccc(C[C@H](C)F)cc21
result.type: RLM
test.result: 344

record.smiles: CC(C)(C)Cc1cnc2c(c1)[C@@H](NC[C@@H](O)[C@H](Cc1ccc3c(c1)OCO3)NC(=O)[C@H]1CCO1)CC1(CCC1)O2
result.type: RLM
test.result: 94

record.smiles: CO[C@H](C)C(=O)N[C@@H](Cc1cncs1)[C@H](O)CN[C@H]1CC2(CCC2)Oc2ncc([C@@H]3CC3(C)C)cc21
result.type: RLM
test.result: 132
